B1: LINE1-mini (parent)
chain: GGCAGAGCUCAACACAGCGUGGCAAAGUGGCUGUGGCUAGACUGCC

Variants of: B1
Procedure text: self-cleavage, relative activity (ratio to wild type); higher = more cleavage; in vitro, sequencing; the parent is a self-cleaving ribozyme
Each entry gets no (0) if its self-cleavage stays under 0.2, and yes (1) if its self-cleavage is 0.2 or above.

Ask | Textbook exercise: given the entry A4G C46U , state whether its self-cleavage is greater than or equal to 0.2.
Reply | yes (1)

Ask | // same read-out, input: G7A C10G
Reply | no (0)

Ask | Same question for G5U U43A please.
Reply | no (0)

Ask | Another variant: C18U C37U
Reply | no (0)

Ask | A11U G19A ?
Reply | yes (1)

Ask | Subsequent entry: G1U G22C
Reply | yes (1)

Ask | Can you handle A41U C42U next?
Reply | no (0)

Ask | Consider next the variant A6U C31U in the same way.
Reply | yes (1)

Ask | And then C8U G44A , what is it?
Reply | yes (1)

Ask | One more variant: A6C C13A
Reply | no (0)

Ask | Could you do the same for A14G C31U , please?
Reply | no (0)

Ask | Param item: G19U C37G
Reply | no (0)

Ask | Entry to check: U20G G21A
Reply | yes (1)

Ask | C8A G29C ?
Reply | no (0)

Ask | Follow-up item: A41U U43A
Reply | no (0)

Ask | Now the same for C37U C46U
Reply | no (0)

Ask | Cool, now A25C G33U
Reply | no (0)

Ask | Next: G1U G21U
Reply | yes (1)

Ask | // repeat for G1C G36A and report
Reply | no (0)

Ask | Could you do the same for G19C G33A , please?
Reply | no (0)

Ask | Now try U28G U34C .
Reply | no (0)

Ask | Thanks! And G22C A24U ?
Reply | yes (1)

Ask | Same question for A12C C18A please.
Reply | no (0)

Ask | What do you have for A11G G21U ?
Reply | no (0)

Ask | Can you handle G22C U28C next?
Reply | yes (1)

Ask | Now the same for U9G C46A
Reply | no (0)

Ask | Also C15G G17C , if possible.
Reply | no (0)

Ask | Consider next the variant G17A C45U in the same way.
Reply | yes (1)

Ask | Then G40A A41U ?
Reply | yes (1)

Ask | Can you handle G5U G35C next?
Reply | no (0)

Ask | Another variant to check: U32C C42U
Reply | yes (1)

Ask | Now the same for A12U A41C
Reply | no (0)

Ask | Try this variant next: A14U G35C
Reply | no (0)

Ask | Try this variant too: A12U C23A
Reply | yes (1)

Ask | Entry C3U U9G please
Reply | no (0)

Ask | Can you check G27U A41G next?
Reply | yes (1)

Ask | Now consider A26C G27U and answer again.
Reply | yes (1)

Ask | Same for G22U G30A
Reply | yes (1)

Ask | Again, but for G21A A39C
Reply | yes (1)

Ask | Further, for C15G A16U ?
Reply | no (0)

Ask | How about A26U C31A ?
Reply | no (0)

Ask | How about this variant: U32A C42A
Reply | no (0)

Ask | Query G35A G44A next
Reply | no (0)

Ask | Can you handle A4C C37A next?
Reply | yes (1)

Ask | Now give it for G1U G7A too.
Reply | no (0)

Ask | Next variant: A6C C45A
Reply | yes (1)
